# System: Rattus norvegicus
# METHOD NOTES: Diuretic activity given as urinary output of 30 mg/kg perorally administered compound in rats
# Format: functional, Urine
# EXPERIMENTAL CONTEXT: route oral
# Urinary output annotations
A number alone suffices; assume mL.

{"COMPOUND": "NS(=O)(=O)c1cc(N2CCN(CC(O)COc3cccc4ccccc34)CC2)ccc1Cl (stereo not given)", "VALUE OBSERVED": 2.9}
{"COMPOUND": "NS(=O)(=O)c1cc(NCCNCC(O)COc2cccc3c2SCC(=O)N3)ccc1Cl (stereo not given)", "VALUE OBSERVED": 3.1}
{"COMPOUND": "NS(=O)(=O)c1cc(C(=O)NCCNCC(O)COc2cccc3ccccc23)ccc1Cl (stereo not given)", "VALUE OBSERVED": 2.9}
{"COMPOUND": "NS(=O)(=O)c1cc2c(cc1Cl)NCNS2(=O)=O [HYDROCHLOROTHIAZIDE]", "VALUE OBSERVED": 7.3}

Please turn your attention to the following entry.
Specify Urinary output for NS(=O)(=O)c1cc(N2CCN(CC(O)COc3cccc4c3SCC(=O)N4)CC2)ccc1Cl (stereo not given) and stop.
3.5

----------
# Tested on: Rattus norvegicus
# METHOD NOTES: Saluretic activity was evaluated for K+ by flame photometry at 8 mg/kg perorally
# Type: functional
# EXPERIMENTAL CONTEXT: route oral
Use 1 m equiv kg-1 as the dividing line for Activity, with the line itself on the condition met side and lower values as condition not met.

{"MOLECULE": "NS(=O)(=O)c1cc(NCCNCC(O)COc2cccc3c2SCC(=O)N3)ccc1Cl (stereo not given)", "CLASS NAME": "condition met"}

Does the molecule NS(=O)(=O)c1cc(C(=O)NCCNCC(O)COc2cccc3c2SCC(=O)N3)ccc1Cl (stereo not given) have recorded Activity that is 1 m equiv kg-1 or more?
condition not met

# bool: Activity of NS(=O)(=O)c1cc(C(=O)NCCNCC(O)COc2cccc3c2CCC(=O)N3)ccc1Cl (stereo not given) >= 1 m equiv kg-1
condition met

Reported Activity reaches at least 1 m equiv kg-1 for NS(=O)(=O)c1cc2c(cc1Cl)NCNS2(=O)=O [HYDROCHLOROTHIAZIDE] ?
condition met

# bool: Activity of NS(=O)(=O)c1cc(S(=O)(=O)NCCNCC(O)COc2cccc3c2SCC(=O)N3)ccc1Cl (stereo not given) >= 1 m equiv kg-1
condition met

----------
# Test system: Rattus norvegicus
# METHOD NOTES: Diuretic activity given as urinary output of 30 mg/kg perorally administered compound in rats
# Type: functional, Urine
# EXPERIMENTAL CONTEXT: route oral
ATTRIBUTE MEASURED: Urinary output
Reply with a number, then the unit it belongs to.

{"COMPOUND": "NS(=O)(=O)c1cc(S(=O)(=O)NCCNCC(O)COc2cccc3c2SCC(=O)N3)ccc1Cl (centres undefined)", "VALUE OBSERVED": "5.7 mL"}
{"COMPOUND": "NS(=O)(=O)c1cc(NCCNCC(O)COc2cccc3ccccc23)ccc1Cl (centres undefined)", "VALUE OBSERVED": "3.5 mL"}
{"COMPOUND": "NS(=O)(=O)c1cc(C(=O)NCCNCC(O)COc2cccc3c2SCC(=O)N3)ccc1Cl (centres undefined)", "VALUE OBSERVED": "2 mL"}

Name the recorded Urinary output of NS(=O)(=O)c1cc(C(=O)NCCNCC(O)COc2cccc3c2CCC(=O)N3)ccc1Cl (centres undefined) , assay system Rattus norvegicus.
3.3 mL
